Biological target: HCV polymerase (Hepatitis C virus genotype 1b, UniProt P26663)
Construct: 2.5 pmoles (0.15 μg) HCV polymerase protein in a final volume of 75 μL
Sequence (P26663 2420-3010): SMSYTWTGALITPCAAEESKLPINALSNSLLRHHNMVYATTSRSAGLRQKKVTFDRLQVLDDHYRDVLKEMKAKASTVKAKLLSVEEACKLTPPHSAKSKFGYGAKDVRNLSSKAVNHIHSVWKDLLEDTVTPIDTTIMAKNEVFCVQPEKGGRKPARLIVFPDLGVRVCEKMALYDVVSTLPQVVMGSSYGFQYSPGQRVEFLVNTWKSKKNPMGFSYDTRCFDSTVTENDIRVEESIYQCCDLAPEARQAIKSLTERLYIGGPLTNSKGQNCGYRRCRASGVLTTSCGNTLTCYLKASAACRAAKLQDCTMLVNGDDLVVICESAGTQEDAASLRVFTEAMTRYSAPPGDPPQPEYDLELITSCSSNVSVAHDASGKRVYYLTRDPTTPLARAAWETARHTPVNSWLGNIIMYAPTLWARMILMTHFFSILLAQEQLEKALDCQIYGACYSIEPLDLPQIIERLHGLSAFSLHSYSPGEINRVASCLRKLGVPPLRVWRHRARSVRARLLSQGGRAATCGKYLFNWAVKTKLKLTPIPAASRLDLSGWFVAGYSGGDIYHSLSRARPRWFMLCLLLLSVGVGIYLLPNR
Experiment: HCV polymerase primer/template-directed transcription assay (32P-GTP incorporation, filter binding)
Assay type: biochemical
Conditions: recombinant HCV polymerase; 30 minutes at 30° C.; concentration giving 50% inhibition of polymerase-directed transcription; read-out: IC50
RECORDED_METRIC: pIC50
The scale used: pIC50 is minus the common logarithm of the concentration in molar units.

I have this molecule here, COCc1cc(CCC2(C3CCCC3)CC(=O)CC(=O)O2)ccc1O (centres unmarked) [A(194)] , and I need its recorded pIC50.
5.16

I have this molecule here, CCc1cc(CCC2(C3CCCC3)CC(=O)CC(=O)O2)ccc1N(C)S(C)(=O)=O (centres unmarked) [A(87)] , and I need its recorded pIC50.
6.05

I have this molecule here, CCc1cc(CCC2(C3CCCC3)CC(=O)CC(=O)O2)cc(CC)c1O (centres unmarked) [A(235)] , and I need its recorded pIC50.
6.05

I have this molecule here, O=C1OC(CCC2CCCC2)(C2CCCC2)CC(O)=C1Sc1nnc(-c2ccncc2)[nH]1 (centres unmarked) [C(28)] , and I need its recorded pIC50.
5.10

I have this molecule here, COc1cc(OC)c(CCC2(C3CCCC3)CC(O)=C(Sc3nnc(CCN4CCOCC4)n3C)C(=O)O2)cc1Cl (centres unmarked) [C(90)] , and I need its recorded pIC50.
7.40

I have this molecule here, COc1ccc(CCC2(C3CCCC3)CC(O)=C(Cc3nc4nc(C)cc(C)n4n3)C(=O)O2)cc1[C@@H](C)O (stereo in doubt) [B(120)] , and I need its recorded pIC50.
7.92

I have this molecule here, CCc1cc(CCC2(C3CCCC3)CC(O)=C(Cc3nc4nc(C)cc(C)n4n3)C(=O)O2)cc(Cl)c1O (centres unmarked) [B(100)] , and I need its recorded pIC50.
8.52

I have this molecule here, Cc1nc(CC2=C(O)CC(CCc3ccc(OCC4CC4)c(Cl)c3)(C3CCCC3)OC2=O)n(C)n1 (centres unmarked) [B(70)] , and I need its recorded pIC50.
6.62
